Recorded measurements of fold-change of OD 450 over negative control (BSA), one per entry
tested.system: T1, Mature Activin A (human, UniProt P08476 311-426)
T1 construct: also called active Activin A; INHBA mature
T1 sequence: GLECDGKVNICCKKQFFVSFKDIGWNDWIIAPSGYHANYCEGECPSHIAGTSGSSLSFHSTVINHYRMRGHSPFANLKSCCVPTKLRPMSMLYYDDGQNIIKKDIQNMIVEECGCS
measurement.description: ELISA, coated antigen, OD450
The figure you give is taken to be in fold; do not add the unit.

# annotated cases, reported fold-change of OD 450 over negative control (BSA) shown
>>> recorded_result("AB852 (antibody, IgG1, V domains shown) VH: QVTLRESGPALVKPTQTLTLTCTVSGFSLSDTRWGVNWIRQPPGKALEWIGYINDRGTTDYNSALKSRLTISKDTSKNQVVLTMTNMDPVDTATYYCAHTLHTREFVGMDVWGQGTTVTVSS VL: DIVMTQSPDSLAVSLGERATINCKSSQSVLDTSTNRNYLAWYQQKPGQPPKLLIYGASIRAGGVPDRFSGSGSGTDFTLTISSLQAEDVAVYYCQQYETWPWTFGGGTKVEIK")
8.73
>>> recorded_result("AB366 (antibody, IgG1, V domains shown) VH: QVQLQESGPGLVKPSQTLSLTCTVSGYSLTDARIGVNWIRQPPGKGLEWIGYINPSGRTDYNPSLKSRVTMSVDTSKNQFSLKVNSVTAADTAVYYCARAGYPDVWGKGTTVTVSS VL: DIQMTQSPSSVSASVGDRVTITCRASQTISRSLAWYQQKPGKAPKLLIYDASSLAGGVPSRFSGSGSGTDFTLTISSLQPEDFANYYCQQYSSYPSLFGGGTKVEIK")
13.1

In the following, a different binder is considered.
Query: For AB326 (antibody, IgG1, V domains shown) VH: QVQLVQSGAEVKKPGASVKVSCKVSGYTFTSSAISWVRQAPGKGLEWMGGIYPGSGHTIYAQKFQGRVTMTEDTSTDTAYMELSSLKSEDTAVYYCAREGDIFVMDVWGLGTAVTVSS VL: DIQMTQSPSSVSASVGDRVTITCRASMDIRNDLAWYQQKPGKAPKLLIYDASKLETGVPSRFSGSGSGTDFTLTISSLQPEDFANYYCQQAKSFPPTFGGGTKVEIK , write its fold-change of OD 450 over negative control (BSA).
Response: 6.01

Where these numbers come from: patent US20250270304A1
